- assay_name: amyloid nucleation score (Sup35N fusion, yeast selection) (log enrichment); library NNK3; higher = more nucleation; inactive = no reads after selection;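 further: zero at mode of non-aggregating sequences after 7 days selection at 30°C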
experimental_readout: amyloid nucleation score

Consider the following illustrative entries.
INSERT INTO measurements (substance, experimental_readout, value) VALUES
  ('TFYSSML', 'amyloid nucleation score', 'inactive'),
  ('LGIQYLDETHCPKSTSKGFS', 'amyloid nucleation score', 'inactive'),
  ('ALSAYQGVFSYWCRWQWLVA', 'amyloid nucleation score', 'inactive'),
  ('GNPRNMTVDDSDGKSFYFFY', 'amyloid nucleation score', 'inactive'),
  ('TCTSQMLVWYFFPFLINMSW', 'amyloid nucleation score', 'inactive');

### Prompt // amyloid nucleation score lookup, key: WCQFSDLSVAFK
### Response inactive

### Prompt How about VRNNVCRPVCYGWNGGYITV ?
### Response inactive

### Prompt How about SSERSGRRRNWSVRSCLVGQ ?
### Response inactive

### Prompt How about KCDDIGCLGQAT ?
### Response inactive

### Prompt How about RLFSFAIFHENTMLGNCCTM ?
### Response 2.44

###

- assay_name: amyloid nucleation score (Sup35N fusion, yeast selection) (log enrichment); library NNK2; higher = more nucleation; inactive = no reads after selection
// not met strictly below 0.2 in amyloid nucleation score; met otherwise

INSERT INTO measurements (record_sequence, category_label) VALUES
  ('YTNSMTHAYTVLWRYMSPTN', 'met');

### Prompt Could you tell me if the measured amyloid nucleation score of HYYWSALSSAFVNSMIVR reaches 0.2 or more?
### Response not met

### Prompt How about CVCSVYAGNFCLIVLVWLMV ?
### Response met

### Prompt How about TDVRGDTSRGLGSFKLFRIM ?
### Response not met

### Prompt How about RGTNQSSVSMRGAL ?
### Response met

### Prompt How about DNFFIMALHSSREVDMKNRS ?
### Response not met

### Prompt How about KSFIGWLYMDTEYHWMYQPW ?
### Response met

### Prompt How about GRSSAWFNEGRLW ?
### Response met

### Prompt How about RVYEVFGQKATGQMARRSVG ?
### Response met

### Prompt How about VVVSRTITLSTSYEFYIVKY ?
### Response met

### Prompt How about SFKLGSHVSDKKIGMDLCFT ?
### Response not met

### Prompt How about THRTGLDK ?
### Response met

### Prompt How about VLYHFEISA ?
### Response not met

### Prompt How about YSTYRASVGFARRGMPLPIL ?
### Response not met

### Prompt How about GPFNKMYAYEIRQTGAFWRQ ?
### Response not met

### Prompt How about NFKCFTRRVNWESYITEVVR ?
### Response met

### Prompt How about MDKFFFSFTYGGLSQPDQGV ?
### Response not met

### Prompt How about IRGCLNMFWLKKWDLPRLYF ?
### Response not met

### Prompt How about GMSSIINVELAGQWTWVKFN ?
### Response met

### Prompt How about GLYGMGIQMGPRISVSYPAA ?
### Response met

###

- assay_name: amyloid nucleation score (Sup35N fusion, yeast selection) (log enrichment); library NNK2; higher = more nucleation; inactive = no reads after selection
// No strictly below 0.2 in amyloid nucleation score; Yes otherwise

Completed entries (count: 6):
INSERT INTO results (substance, category_label) VALUES
  ('WLLMYPLI', 'No'),
  ('YRIQKHWCQLS', 'No'),
  ('GFRIGTLLGTMINSMNCSFI', 'Yes'),
  ('SAKNMFDMYNCLDTLVVSWD', 'No'),
  ('PSLMHSHLESNNTSA', 'No'),
  ('SRSVIFSGESSHHADWFWTV', 'Yes');

### Prompt Could you tell me if the measured amyloid nucleation score of LVFMAFC reaches 0.2 or more?
### Response Yes

### Prompt How about LQLASNVHEHKQNGLSHRIN ?
### Response Yes

### Prompt How about LKYVLARCFRKCWYVLWTSA ?
### Response No

### Prompt How about VAYVQCD ?
### Response No

### Prompt How about CGVFCLV ?
### Response Yes

### Prompt How about PLNSMNVAESESYGLSQMS ?
### Response Yes

### Prompt How about IYLFFSCFFAILTNLVRPFA ?
### Response Yes

### Prompt How about LGYKVSK ?
### Response Yes

### Prompt How about GVSFSDYLSACCLDAGVSGY ?
### Response Yes
